conditions: in methanol, 313.15 K
Where a SMILES comes first, the peptide text is derived from it. [ ]: non-standard residue; d: D form. pGlu = O=C1CC[C@@H](C(=O)O)N1; Thz = O=C(O)[C@@H]1CSCN1
readout.type: solubility (mole fraction)
Form rule: numeric answer, no unit written next to it.

-- ask I'd like to know its solubility (mole fraction). The molecule in question is O=C1CC[C@@H](C(=O)N2CSC[C@H]2C(=O)O)N1 ([pGlu]-[Thz]-OH)
-- reply 0.00365

###

details: in DMF, 283.15 K
Where a SMILES comes first, the peptide text is derived from it. [ ]: non-standard residue; d: D form. pGlu = O=C1CC[C@@H](C(=O)O)N1; Thz = O=C(O)[C@@H]1CSCN1
readout.type: solubility (mole fraction)
Form rule: numeric answer, no unit written next to it.

-- ask I'd like to know its solubility (mole fraction). The molecule in question is O=C1CC[C@@H](C(=O)N2CSC[C@H]2C(=O)O)N1 ([pGlu]-[Thz]-OH)
-- reply 0.00604

###

settings: in acetone, 283.15 K
Where a SMILES comes first, the peptide text is derived from it. [ ]: non-standard residue; d: D form. pGlu = O=C1CC[C@@H](C(=O)O)N1; Thz = O=C(O)[C@@H]1CSCN1
readout.type: solubility (mole fraction)
Form rule: numeric answer, no unit written next to it.

-- ask I'd like to know its solubility (mole fraction). The molecule in question is O=C1CC[C@@H](C(=O)N2CSC[C@H]2C(=O)O)N1 ([pGlu]-[Thz]-OH)
-- reply 5e-05

###

details: in water, 283.15 K
Where a SMILES comes first, the peptide text is derived from it. [ ]: non-standard residue; d: D form. pGlu = O=C1CC[C@@H](C(=O)O)N1; Thz = O=C(O)[C@@H]1CSCN1
readout.type: solubility (mole fraction)
Form rule: numeric answer, no unit written next to it.

-- ask I'd like to know its solubility (mole fraction). The compound in question is O=C1CC[C@@H](C(=O)N2CSC[C@H]2C(=O)O)N1 ([pGlu]-[Thz]-OH)
-- reply 0.00181

###

details: in DMF, 308.15 K
Where a SMILES comes first, the peptide text is derived from it. [ ]: non-standard residue; d: D form. pGlu = O=C1CC[C@@H](C(=O)O)N1; Thz = O=C(O)[C@@H]1CSCN1
readout.type: solubility (mole fraction)
Form rule: numeric answer, no unit written next to it.

-- ask I'd like to know its solubility (mole fraction). The compound in question is O=C1CC[C@@H](C(=O)N2CSC[C@H]2C(=O)O)N1 ([pGlu]-[Thz]-OH)
-- reply 0.0182

###

conditions: in benzyl alcohol, 288.15 K
Where a SMILES comes first, the peptide text is derived from it. [ ]: non-standard residue; d: D form. pGlu = O=C1CC[C@@H](C(=O)O)N1; Thz = O=C(O)[C@@H]1CSCN1
readout.type: solubility (mole fraction)
Form rule: numeric answer, no unit written next to it.

-- ask I'd like to know its solubility (mole fraction). The compound in question is O=C1CC[C@@H](C(=O)N2CSC[C@H]2C(=O)O)N1 ([pGlu]-[Thz]-OH)
-- reply 0.00307

Entry source: BigSolDB 2.1
